Biological target: SARS-CoV-2 Gamma (P.1) S1 (SARS-CoV-2 Gamma (P.1), strain)

binder	binding result
YB13-217 (antibody, V domains shown) V domain 1: QVQLVESGGGVVQPGKSLRLSCTASGFTFSSHSMHWVRQAPGKGLDWVAVISFDGTKNYFADSLKGRFSVSRDNSRNTLYLQMNSLRVEDTAVYYCAREEGGSRMYHYYYGMDVWGQGTTVTVSS V domain 2: QSVLTQPPSASGTPGQRVTISCSGSSSNIGTNTVNWYQQLPGTAPKLLIYTNNQRPSGVPDRFSGSKSGTSASLAIGGLQSEDEADYYCAAWDDSVSSYVFGTGTQVTAL	binds
YB9-112 (antibody, V domains shown) VH: EVRLVESGGGLIQPGGSLRLSCAASGLIVSSNYMTWVRQAPGKGLEWVSVIYSGGSTFYADSVKGRFTISRDNSKNTLFLQMSSLRAEDTAIYYCARDLDYYGMDVWGQGTTVTVSS VL: DIQLTQSPSFLSASVGDRVTITCRASQGVASYLAWYQQKPGKAPKLLIYAASTLQSGVPSRFSGSGSGTEFTLTISSLQPEDFATYYCQHLNSYPPITFGQGTRLEIK	binds
YB12-266 (antibody, V domains shown) VH: EVQLVESGGGLIQPGGSLRLSCAASGLTVSSNYMSWVRQAPGKGLEWVSLIYSGGTTSYADSVKGRFTISRDNSKNTLYLQMNSLRVEDTAVYYCARDLVVYGMDVWGQGTTVTVSS VL: AIQLTQSPSSLSASVGDRVTITCRASQGISSYLAWYQQKPGKAPKLLIYAASTLQSGVPSRFSGSGSGTDFTLTISSLQPEDFATYYCQLLNSYPLTFGGGTKVEIK	binds
